Catalogue of Number of revertant colonies TA1537 values
- System: Salmonella typhimurium TA1537
- Measurement Notes: Ames test (reverse mutation test), TA1537
- Format: cell-based
- Run Conditions: S9 Mix +; dose 1667 µg/plate
Respond numerically, and do not add a unit to the figure.

Molecule	Number of revertant colonies TA1537
Cc1cccc(-n2nc(N)cc2-c2cccc(OC(F)(F)F)c2)c1 [Metabolite H]	19
Cc1ccc(-n2nc(N)cc2-c2cccc(OCC(F)(F)F)c2)cc1 [Metabolite F]	39
Nc1cc(-c2cccc(OCC(F)(F)F)c2)n(-c2ccc(F)cc2)n1 [Metabolite E]	0

Please turn your attention to the following entry.
INPUT: Fill in the blank: the reported Number of revertant colonies TA1537 of Nc1cc(-c2cccc(OC(F)(F)F)c2)n(-c2cccc(F)c2)n1 [Metabolite G] is ____.
OUTPUT: 0
